# test_system: human mAChR M4 (Homo sapiens)
# Construct: expressed in transfected cells; host or cells: CHO-K1 (ATCC), stably co-expressing chimeric G protein Gqi5
# Sequence (P08173 1-479): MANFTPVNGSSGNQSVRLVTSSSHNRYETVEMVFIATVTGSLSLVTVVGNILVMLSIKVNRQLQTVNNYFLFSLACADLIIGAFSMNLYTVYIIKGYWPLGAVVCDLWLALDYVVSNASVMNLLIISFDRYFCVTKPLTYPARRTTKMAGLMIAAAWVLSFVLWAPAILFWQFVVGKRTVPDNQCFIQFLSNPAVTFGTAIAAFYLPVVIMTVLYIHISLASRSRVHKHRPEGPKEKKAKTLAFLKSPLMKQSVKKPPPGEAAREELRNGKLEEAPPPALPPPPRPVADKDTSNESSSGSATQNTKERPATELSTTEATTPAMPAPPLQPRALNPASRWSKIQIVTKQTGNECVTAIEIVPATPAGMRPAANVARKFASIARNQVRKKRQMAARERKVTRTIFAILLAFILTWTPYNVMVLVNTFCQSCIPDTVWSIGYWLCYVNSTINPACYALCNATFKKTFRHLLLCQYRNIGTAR
# assay_explanation: mAChR M4 cell-based functional assay (calcium mobilization, EC80 acetylcholine), human M4
# measurement_context: Table 10
# Description: Human or rat M4 cDNA, along with the chimeric G protein Gqi5, were transfected into Chinese hamster ovary (CHO-K1) cells purchased from the American Type Culture Collection using Lipofectamine2000. […] Calcium flux was measured using the Functional Drug Screening System (FDSS) 6000 or 7000 (Hamamatsu Corporation, Tokyo, Japan) as an increase in the fluorescent static ratio. […] Agonist activity was analyzed as a concentration-dependent increase in calcium mobilization upon compound addition. […]
observed_property: Human M4 Emin (%)

Example compounds with recorded Human M4 Emin:
{"compound": "Fc1ccc(-c2ccc(N[C@H]3C[C@@H]4CN(CC5CCOCC5)C[C@@H]4C3)nn2)cc1 [Compound 187]", "Human M4 Emin / %": 4}
{"compound": "c1cc(-c2ccc(N[C@H]3C[C@@H]4CN(CC5CCOCC5)C[C@@H]4C3)nn2)ccn1 [Compound 219]", "Human M4 Emin / %": 9}

(A) F[C@H]1CCN(c2ccc(N[C@H]3C[C@@H]4CN(CC5CCOCC5)C[C@@H]4C3)nn2)C1 [Compound 195]
(B) Fc1ccc(Cl)c(-c2ccc(N[C@H]3C[C@@H]4CN(Cc5ccc6c(c5)OCO6)C[C@@H]4C3)nn2)c1 [Compound 166]
(C) c1ccc(-c2cnc(N[C@H]3C[C@@H]4CN(Cc5ccncc5)C[C@@H]4C3)s2)cc1 [Compound 231]
List by increasing Human M4 Emin. Answer by listing the labels in the requested order.
B, A, C
(B: 2%, A: 4%, C: 68%)
